These data points were gathered from PubChem BioAssay (Tox21).

Assay: qHTS assay to identify small molecule antagonists of the glucocorticoid receptor (GR) signaling pathway - cell viability counter screen (AID 720693); further: nearly all actives have a fitted effect of over 55% in size
Details: GR-bla HeLa viability, CellTiter-Glo luminescence, 18 h, with 5 nM dexamethasone present; series mostly up to 58.5 µM
Inconclusive results are not listed. Activity calls are given as the source filed them. The call rests on the fitted dose curve; in most records, active means well fitted cell-killing curve with a large enough effect in the repeat runs; inconclusive means weak or mixed curves, or effect the other way; inactive means no such curve, though single readings can be large or run the other way.
Bench note: report the call from 1.0 (active), 0.0 (inactive)

Tell me the assay call for `CCC(=O)O[C@H]1[C@H](O[C@@H]2[C@@H](C)[C@H](O[C@H]3C[C@@](C)(OC)[C@@H](O)[C@H](C)O3)[C@@H](C)C(=O)O[C@H](CC)[C@@](C)(O)[C@H](O)[C@@H](C)C(=O)[C@H](C)C[C@@]2(C)O)O[C@H](C)C[C@@H]1N(C)C` please.
0.0

Tell me the assay call for `C=C[C@H]1CN2CC[C@H]1C[C@@H]2[C@@H](O)c1ccnc2ccc(OC)cc12` please.
0.0

Tell me the assay call for `Cc1cccc(Nc2ccccc2C(=O)O)c1C` please.
0.0

Tell me the assay call for `C/C=C/C(=O)N(CC)c1ccccc1C` please.
0.0

Tell me the assay call for `CC(=O)[C@@]1(O)CC[C@H]2[C@@H]3C[C@H](C)C4=CC(=O)C=C[C@]4(C)[C@@]3(F)[C@@H](O)C[C@@]21C` please.
0.0

Tell me the assay call for `CC(C)(C)c1cccc(C(C)(C)C)c1O` please.
0.0

Tell me the assay call for `CN(C)C` please.
0.0

Tell me the assay call for `C[C@]12CC[C@@H]3c4ccc(O)cc4CC[C@H]3[C@@H]1CC[C@H]2O` please.
1.0

Tell me the assay call for `Clc1ccc(Sc2cc(Cl)c(Cl)cc2Cl)cc1` please.
0.0

Tell me the assay call for `OC[C@@H](O)[C@@H](O[C@@H]1O[C@H](CO)[C@H](O)[C@H](O)[C@H]1O)[C@H](O)[C@@H](O)CO` please.
0.0

Tell me the assay call for `Cc1ccc(C(C)(C)C)c(O)c1` please.
0.0

----------
Assay: qHTS assay to identify small molecule agonists of the TGF-beta/Smad signaling pathway - cell viability counter screen (AID 1346829); further: top concentration of the series differs between compounds; on the % scale 0 is the no-effect control and ±100 the full control effect; nearly all actives have a fitted effect of over 45% in size
Details: SBE-bla HEK293T viability, CellTiter-Glo luminescence, 5 h; series mostly up to 76.8 µM
Inconclusive results are not listed. Calls of active or inactive are those of the source. Calls come from the whole dose curve; as a rule, active = well fitted cell-killing curve with a large enough effect in the repeat runs; inconclusive = weak or mixed curves, or effect the other way; inactive = flat fitted curve, though single readings scatter.
measured parameter: outcome

Sample answers from the record:
{"compound": "C[N+](C)(C)CCO", "outcome": "inactive"}
{"compound": "CC(=O)O[C@]1(C(C)=O)CC[C@H]2[C@@H]3C=C(Cl)C4=CC(=O)CC[C@]4(C)[C@H]3CC[C@@]21C", "outcome": "inactive"}
{"compound": "O=C(O)c1ccc(O)cc1", "outcome": "inactive"}
{"compound": "ClC/C=C/CCl", "outcome": "inactive"}
{"compound": "COc1ccc2nc(N)sc2c1", "outcome": "inactive"}
{"compound": "CC/C=C\\C/C=C\\C/C=C\\CCCCCCCC(=O)O", "outcome": "inactive"}

Input COC(=O)C(C)Oc1ccc(Oc2ncc(C(F)(F)F)cc2Cl)cc1 (stereo not given) , output reported outcome.
inactive

Input `Cc1ccc(S(=O)(=O)O)cc1C` , output reported outcome.
inactive

Input `O=C1CCc2ccccc2O1` , output reported outcome.
inactive

Input `Nc1ccc2c(c1)C(=O)c1ccccc1C2=O` , output reported outcome.
inactive

----------
Assay: qHTS assay for small molecule activators of the heat shock response signaling pathway (AID 743210);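 further: HeLa cells with beta-lactamase reporter driven by heat shock elements; on the % scale 0 is the no-effect control and ±100 the full control effect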
Conditions: HeLa HSE-bla reporter, beta-lactamase ratio, 5 h; series mostly up to 62.6 µM
Inconclusive results are not listed. Active and inactive are the calls of the source. The call rests on the fitted dose curve; in most records, active means well fitted activation curve with a large enough effect in the signal ratio in the repeat runs, with a control signal flat (not every such curve was filed as active); inconclusive means weak or mixed curves; inactive means flat fitted curve, though single readings scatter; the % refers to the signal ratio.
measured parameter: outcome

Sample answers from the record:
{"compound": "CC(=O)[C@H]1CC[C@H]2[C@@H]3CC=C4C[C@@H](O)CC[C@]4(C)[C@H]3CC[C@]12C", "outcome": "inactive"}
{"compound": "[Na+]", "outcome": "inactive"}
{"compound": "Brc1nc2ccccc2s1", "outcome": "inactive"}
{"compound": "C[C@]12CC[C@@H]3c4ccc(O)cc4CC[C@H]3[C@@H]1CC[C@@H]2O", "outcome": "inactive"}
{"compound": "Cc1ccc([N+](=O)[O-])c(C)c1", "outcome": "inactive"}

Input `C=CN1CCCC1=O` , output reported outcome.
inactive

----------
Experiment: qHTS assay for small molecule disruptors of the mitochondrial membrane potential (AID 720635)
Details: HepG2 mitochondrial membrane potential, Mito-MPS dye ratio; series mostly up to 83.2 µM
Results filed as inconclusive are left out. Calls of active or inactive are those of the source. The call rests on the fitted dose curve; in most records, active means well fitted inhibition curve with a large enough effect in the signal ratio in the repeat runs; inconclusive means weak or mixed curves, or effect the other way; inactive means flat fitted curve, though single readings scatter; the % refers to the signal ratio.
Bench note: report the call from YES = active, NO = inactive

Tell me the assay call for `O=C(O)CCCCCCCCCCCC(=O)O` please.
NO

Tell me the assay call for `C=C1C[C@H]2[C@@H]3C=C(C)C4=CC(=O)CC[C@]4(C)[C@H]3CC[C@]2(C)[C@@]1(OC(C)=O)C(C)=O` please.
NO

Tell me the assay call for `Cc1ccc(N)c([N+](=O)[O-])c1` please.
YES

Tell me the assay call for `c1ccc2c(c1)ccc1ncccc12` please.
YES

Tell me the assay call for `c1ccc2c(c1)ccc1cc3c(ccc4ccccc43)cc12` please.
NO

Tell me the assay call for `CC(C)[N+](C)(CCOC(=O)C1c2ccccc2Oc2ccccc21)C(C)C` please.
NO

Tell me the assay call for `O=C(O)CCCC(=O)O` please.
NO

Tell me the assay call for `Cc1ccc2c(c1)C(=O)OC2=O` please.
NO

Tell me the assay call for `Cc1ccc(S(=O)(=O)O)cc1C` please.
NO

Tell me the assay call for `C[N+](C)(C)CCO` please.
NO

Tell me the assay call for `CN1CCOCC1` please.
NO

Tell me the assay call for CCCCCCCCCCC(CO)CCCCCCCC (centres undefined) please.
NO

Tell me the assay call for `NCCOCCO` please.
NO

Tell me the assay call for `C=CCOC(=O)C(=C)C` please.
NO

----------
Test: A CellTox Green Cytotoxicity Assay to monitor cytotoxicity in HEK293 cells - 40 hour (AID 1224871); further: nearly all actives have a fitted effect of over 45% in size
Details: CellTox Green fluorescence; series mostly up to 76.8 µM
Results filed as inconclusive are left out. Active and inactive are the calls of the source. Calls come from the whole dose curve; as a rule, active = well fitted activation curve with a large enough effect in the repeat runs; inconclusive = weak or mixed curves; inactive = flat fitted curve, though single readings scatter.
Bench note: report the call from active, inactive

Tell me the assay call for `OCCNCCO` please.
inactive

Tell me the assay call for `[Na+]` please.
inactive

Tell me the assay call for `c1ccc2c(c1)ccc1ncccc12` please.
inactive

Tell me the assay call for `c1ccc2ncccc2c1` please.
inactive

Tell me the assay call for `CC(C)[C@@H]1CC[C@@H](C)CC1=O` please.
inactive

Tell me the assay call for `CC(=O)[C@@]1(O)CC[C@H]2[C@@H]3C[C@H](C)C4=CC(=O)C=C[C@]4(C)[C@@]3(F)[C@@H](O)C[C@@]21C` please.
inactive

Tell me the assay call for `COc1ccc(-c2coc3cc(O)cc(O)c3c2=O)cc1` please.
inactive

Tell me the assay call for `c1ccc2c(c1)ccc1cc3c(ccc4ccccc43)cc12` please.
inactive

Tell me the assay call for `CN(C)CCCN1c2ccccc2Sc2ccc(Cl)cc21` please.
active

Tell me the assay call for COC(=O)C(C)Oc1ccc(Oc2ncc(C(F)(F)F)cc2Cl)cc1 (stereo unspecified) please.
inactive

Tell me the assay call for `CCC/C=C/C=O` please.
inactive

----------
Assay: qHTS assay to identify small molecule antagonists of the androgen receptor (AR) signaling pathway - cell viability counter screen (AID 743033; further: nearly all actives have a fitted effect of over 45% in size)
Details: AR-bla HEK293 viability, CellTiter-Glo luminescence, 16 h; series mostly up to 58.5 µM
Inconclusive results are not listed. Activity calls are given as the source filed them. Calls follow the shape of the dose curve; as a rule, active = well fitted cell-killing curve with a large enough effect in the repeat runs; inconclusive = weak or mixed curves; inactive = no such curve, though single readings can be large or run the other way.
Bench note: report the call from active, inactive

Tell me the assay call for `CC[C@]12CCCN3CCc4c(n(c5ccccc45)[C@@](O)(C(=O)OC)C1)[C@@H]32` please.
inactive

Tell me the assay call for `Brc1nc2ccccc2s1` please.
inactive

Tell me the assay call for `C=CCOC(=O)C(=C)C` please.
inactive

Tell me the assay call for `C/C=C/C(=O)N(CC)c1ccccc1C` please.
inactive

Tell me the assay call for `O=C1OC2(c3ccccc31)c1cc(I)c(O)c(I)c1Oc1c2cc(I)c(O)c1I` please.
inactive

Tell me the assay call for `CC(=O)[C@H]1CC[C@H]2[C@@H]3CC=C4C[C@@H](O)CC[C@]4(C)[C@H]3CC[C@]12C` please.
inactive

Tell me the assay call for `CCCCCCCCCCCCCO` please.
inactive

Tell me the assay call for `CC(=O)Nc1ccc2c(c1)Cc1cc(NC(C)=O)ccc1-2` please.
inactive

Tell me the assay call for `O=C(O)CCCC(=O)O` please.
inactive

Tell me the assay call for `CC(C)[N+](C)(CCOC(=O)C1c2ccccc2Oc2ccccc21)C(C)C` please.
inactive

Tell me the assay call for `CC/C=C\C/C=C\C/C=C\CCCCCCCC(=O)O` please.
inactive

Tell me the assay call for C=CC(C)(O)CCC=C(C)C (stereo unspecified) please.
inactive

Tell me the assay call for `C=C[C@H]1CN2CC[C@H]1C[C@@H]2[C@@H](O)c1ccnc2ccc(OC)cc12` please.
inactive

Tell me the assay call for `CC(C)=CCO` please.
inactive

Tell me the assay call for `CN(C)C` please.
inactive

Tell me the assay call for `Cc1ccc2c(c1)C(=O)OC2=O` please.
inactive

Tell me the assay call for O=C(O)COCCN1CCN(C(c2ccccc2)c2ccc(Cl)cc2)CC1 (stereo unspecified) please.
inactive

Tell me the assay call for CC1(C)C(C=C(Cl)Cl)C1C(=O)OCc1cccc(Oc2ccccc2)c1 (stereo unspecified) please.
inactive

Tell me the assay call for `c1ccc2cc3ccccc3cc2c1` please.
inactive

Tell me the assay call for `Cc1ccc(C)c(O)c1` please.
inactive

Tell me the assay call for `COC(=O)c1ccc(C)cc1` please.
inactive

Tell me the assay call for `O=C(O)c1ccc(O)cc1` please.
inactive

Tell me the assay call for `COc1ccc(C(=O)c2ccccc2O)c(O)c1` please.
inactive

Tell me the assay call for `Cc1ccc(C(C)(C)C)cc1` please.
inactive

Tell me the assay call for `Cc1ccc(/C(=C\CN2CCCC2)c2ccccn2)cc1` please.
inactive

Tell me the assay call for CCC(Cc1c(I)cc(I)c(N)c1I)C(=O)O (stereo unspecified) please.
inactive

Tell me the assay call for `Oc1ccc(C(c2ccc(O)cc2)C(Cl)(Cl)Cl)cc1` please.
active

Tell me the assay call for CCCCCCCCCCC(CO)CCCCCCCC (stereo unspecified) please.
inactive

Tell me the assay call for `CCCCCCOCCOCCO` please.
inactive

Tell me the assay call for `[Na+]` please.
inactive

Tell me the assay call for `CCCCCC=O` please.
inactive

Tell me the assay call for `C=CCCCCCCCCCC` please.
inactive

Tell me the assay call for `CC(C)[C@@H]1CC[C@@H](C)CC1=O` please.
inactive

Tell me the assay call for `NCCN` please.
inactive

Tell me the assay call for `C[N+](C)(C)CCO` please.
inactive

Tell me the assay call for `NC[C@H](O)c1ccc(O)c(O)c1` please.
inactive

Tell me the assay call for `O=C1CCc2ccccc2O1` please.
inactive

Tell me the assay call for `CCCN1C=CN(C)C1` please.
inactive

Tell me the assay call for `C=C[Si](OCCOC)(OCCOC)OCCOC` please.
inactive

Tell me the assay call for `C[C@]12C=CC(=O)C=C1CC[C@H]1[C@@H]3C[C@@H](O)[C@](O)(C(=O)CO)[C@@]3(C)C[C@H](O)[C@@]12F` please.
inactive

Tell me the assay call for `Clc1ccc(Sc2cc(Cl)c(Cl)cc2Cl)cc1` please.
inactive

Tell me the assay call for CCOC(=O)C(C)Oc1ccc(Oc2cnc3cc(Cl)ccc3n2)cc1 (stereo unspecified) please.
inactive

Tell me the assay call for FC(F)(F)C(Cl)Br (stereo unspecified) please.
inactive

Tell me the assay call for `Nc1ccc2c(O)cc(S(=O)(=O)O)cc2c1` please.
inactive

Tell me the assay call for `CC(=O)O[C@]1(C(C)=O)CC[C@H]2[C@@H]3C=C(Cl)C4=CC(=O)CC[C@]4(C)[C@H]3CC[C@@]21C` please.
inactive

Tell me the assay call for `Nc1ccc(O)c(N)c1` please.
inactive

Tell me the assay call for `C=CC(=O)OCCCC` please.
inactive

Tell me the assay call for `COc1ccc2nc(N)sc2c1` please.
inactive

Tell me the assay call for `CCCOCCO` please.
inactive

Tell me the assay call for `CCC(=O)O[C@H]1[C@H](O[C@@H]2[C@@H](C)[C@H](O[C@H]3C[C@@](C)(OC)[C@@H](O)[C@H](C)O3)[C@@H](C)C(=O)O[C@H](CC)[C@@](C)(O)[C@H](O)[C@@H](C)C(=O)[C@H](C)C[C@@]2(C)O)O[C@H](C)C[C@@H]1N(C)C` please.
inactive

Tell me the assay call for `CCC/C=C/C=O` please.
inactive

Tell me the assay call for COC(=O)C(C)Oc1ccc(Oc2ncc(C(F)(F)F)cc2Cl)cc1 (stereo unspecified) please.
inactive

Tell me the assay call for `O=[Se](O)O` please.
inactive

Tell me the assay call for `c1ccc2ncccc2c1` please.
inactive

Tell me the assay call for `Cc1cccc(Nc2ccccc2C(=O)O)c1C` please.
inactive

Tell me the assay call for `CN(C)/N=N/c1nc[nH]c1C(N)=O` please.
inactive
